As shown below, each of these sequences has a reported phosphorylation enrichment value.
test-target: Hck (UniProt P08631)
Sequence (P08631 whole entry, looked up): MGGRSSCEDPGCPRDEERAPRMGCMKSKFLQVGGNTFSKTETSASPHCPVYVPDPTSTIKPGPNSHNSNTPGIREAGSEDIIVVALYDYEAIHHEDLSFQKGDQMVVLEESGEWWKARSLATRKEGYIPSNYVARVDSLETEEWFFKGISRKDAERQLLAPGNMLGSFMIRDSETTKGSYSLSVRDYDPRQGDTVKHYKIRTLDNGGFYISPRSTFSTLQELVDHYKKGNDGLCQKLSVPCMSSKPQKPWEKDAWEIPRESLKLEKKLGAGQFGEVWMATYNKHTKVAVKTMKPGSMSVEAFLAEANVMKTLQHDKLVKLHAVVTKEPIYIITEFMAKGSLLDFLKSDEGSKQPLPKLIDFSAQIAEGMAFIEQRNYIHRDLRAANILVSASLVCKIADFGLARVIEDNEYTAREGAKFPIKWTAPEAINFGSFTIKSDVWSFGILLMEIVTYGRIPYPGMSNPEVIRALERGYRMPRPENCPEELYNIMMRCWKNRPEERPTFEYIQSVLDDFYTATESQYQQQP
assay-text: phosphorylation enrichment, bacterial display (enrichment ratio); higher = better substrate or ligand; peptides without Tyr show the background;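 note: 11-residue human phosphosite peptides and single-mutation variants displayed on the E. coli surface, counted by deep sequencing, each peptide's frequency after selection divided by its frequency in the unselected input library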;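 note: frequency after pTyr selection over input frequency; kinase dosed for 20-30% of maximal phosphorylation in three min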

Some sequences with known phosphorylation enrichment results, for comparison:
QVMDGYPMPIG [MMP14_Y353] : 0.601
SSPRRYTIAAL [TTR_Y125_G121S] : 0.378
DAVKHYMQFRK [CNGA2_Y395] : 0.555
NVQIVYKPVDL [MAPT_Y627_S622N] : 0.477
GFILMYDITNK [RAB3C_Y110_E115K] : 0.591

Field phosphorylation enrichment (entry SIKDKYLTALF [KCNH2_Y611_V612L_YF] ) reads 0.414

Measured phosphorylation enrichment of GRTNICKNKKD [SLC26A3_Y520_Y520C] : 0.482

* * *

Test system: c-Src
assay-text: phosphorylation enrichment, bacterial display (enrichment ratio); higher = better substrate or ligand; peptides without Tyr show the background
Please note: yes (1) applies when phosphorylation enrichment is 0.6 or greater, and no (0) applies otherwise.

Some solved entries appear below for comparison.
RLNCIYYKDQT [RS1_Y165_W163C] : yes (1)
FFCKFYNKSED [RYR1_Y4864_R4861C] : no (0)
ELAKYYKLHHI [AK7_Y391_N389K] : no (0)
IFGVSYGEFRF [CFTR_Y512_D513G_YF] : yes (1)
SQQTFYPVSNM [ABCD1_Y181_R182P_YF] : no (0)

Turning to the following sequence.
Qu. Say whether VDTFWYKLLKR [EPM2A_Y86_F88L] shows phosphorylation enrichment of 0.6 or more.
Ans. no (0)

* * *

Below, each entry is listed alongside its reported phosphorylation enrichment.
Test system: Fer (mouse)
assay-text: phosphorylation enrichment, bacterial display (enrichment ratio); higher = better substrate or ligand; peptides without Tyr show the background

Observe how each entry below is paired with its result.
TSNQEYLYLSM [FGFR1_Y766_D768Y] : 0.845
SQQTFYPVSNM [ABCD1_Y181_R182P_YF] : 0.318
TQNAVYSAANF [DDX5_Y535_G533A_YF] : 6.31
YSGDCYRIQGR [DDR2_Y741_Y740C] : 0.49
TDIVAYSGRVQ [SPTBN2_Y477] : 0.264
ITLKGYNLSNS [GNPTAB_Y728_K732N] : 0.433
GFSDPYVKAFL [SYT3_Y470_S474F] : 0.565
RGVTHYILQTF [SLC39A4_Y359] : 0.582

Kindly note the recorded phosphorylation enrichment for MGGSLYFSYPD [HIKESHI_Y55_V54L] , which is 0.802

The sequence listed as AVLVQYYMEHH [PTPN11_Y80_E76V] shows phosphorylation enrichment equal to 0.516

Briefly, phosphorylation enrichment measured for YRRITYYNWRH [PDE6B_Y556_H557Y] : 0.442

phosphorylation enrichment reported for this sequence GHNDVYISKHV [GRIN2A_Y1423_E1426K] : 0.313

The sequence listed as KLRMESLSLMH [NCKIPSD_Y660_Y660S] shows phosphorylation enrichment equal to 0.388

* * *

test-target: Fes (UniProt P07332)
Sequence (P07332 whole entry, looked up): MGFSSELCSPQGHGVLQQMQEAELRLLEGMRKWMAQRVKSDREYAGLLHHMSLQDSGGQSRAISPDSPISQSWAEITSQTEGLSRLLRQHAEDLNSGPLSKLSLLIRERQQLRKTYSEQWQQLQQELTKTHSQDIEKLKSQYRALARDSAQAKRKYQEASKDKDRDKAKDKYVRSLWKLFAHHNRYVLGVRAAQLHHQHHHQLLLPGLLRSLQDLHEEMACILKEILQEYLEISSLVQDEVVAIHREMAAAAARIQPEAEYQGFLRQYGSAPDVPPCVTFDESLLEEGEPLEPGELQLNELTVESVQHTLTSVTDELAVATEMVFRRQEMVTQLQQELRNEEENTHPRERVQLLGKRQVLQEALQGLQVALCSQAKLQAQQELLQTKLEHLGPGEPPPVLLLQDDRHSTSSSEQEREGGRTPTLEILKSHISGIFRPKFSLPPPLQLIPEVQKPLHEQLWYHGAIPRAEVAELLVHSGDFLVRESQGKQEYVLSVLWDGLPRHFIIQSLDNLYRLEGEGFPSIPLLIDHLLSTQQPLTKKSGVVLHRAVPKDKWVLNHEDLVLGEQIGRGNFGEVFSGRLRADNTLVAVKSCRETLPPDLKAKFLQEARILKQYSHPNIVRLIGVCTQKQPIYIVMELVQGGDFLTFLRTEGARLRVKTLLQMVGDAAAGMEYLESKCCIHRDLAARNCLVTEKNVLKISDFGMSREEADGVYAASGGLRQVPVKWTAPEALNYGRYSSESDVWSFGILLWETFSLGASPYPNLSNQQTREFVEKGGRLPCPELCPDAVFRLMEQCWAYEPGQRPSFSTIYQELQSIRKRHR
assay-text: phosphorylation enrichment, bacterial display (enrichment ratio); higher = better substrate or ligand; peptides without Tyr show the background
Decision: phosphorylation enrichment compared against 0.7; not below it gives Yes, below it gives No.

ISPPVYLTNEW [NRK_Y885] : Yes

Qu. Evaluate FGGTVCHSPVS [PRC1_Y511_Y511C] : phosphorylation enrichment at minimum 0.7?
Ans. No

Qu. Can TLERHYEELQA [SPTBN2_Y834] be said to have phosphorylation enrichment at or above 0.7?
Ans. Yes

Qu. Could you verify whether the entry DPNQQYFIAMD [TBX15_Y159_H156N_YF] shows phosphorylation enrichment of no less than 0.7?
Ans. Yes

Qu. Kindly determine if phosphorylation enrichment recorded for TYGQVYKGPHV [TNIK_Y40_R43P] is above or exactly 0.7.
Ans. Yes

Qu. phosphorylation enrichment >= 0.7 for DPLLTHRFPPK [LMNA_Y481_Y481H] ?
Ans. No

Qu. Hi team, for PGAGHYEDTIL [ALK_Y1604] , is the recorded phosphorylation enrichment at or above 0.7?
Ans. Yes

* * *

test-target: Fes (UniProt P07332)
assay-text: phosphorylation enrichment, bacterial display (enrichment ratio); higher = better substrate or ligand; peptides without Tyr show the background
Would you please tag the item 1 when its phosphorylation enrichment is 1 or above, and 0 when it is below?

Worked examples follow.
SPYMLYQYLKQ [RPAP3_Y567_D564Y] : 1
CTTIHYNFVCN [TP53_Y234_M237V_YF] : 1
TWQSMYGCDVG [HLA-B_Y123_L119W] : 1

Qu. Determine whether measured phosphorylation enrichment meets or exceeds 1 for INNKMYDPKMN [ENPP1_Y280_D276N]
Ans. 0

Qu. Answer whether phosphorylation enrichment of GYYDLYGGEKF [PTPN11_Y66_D61G] is greater than or equal to 1.
Ans. 0

Qu. Please indicate if the recorded phosphorylation enrichment for YRRITYYNWRH [PDE6B_Y556_H557Y] meets or exceeds 1.
Ans. 0

Qu. Item VYYGSYSCPYG [NKAP_Y104_R106C] with phosphorylation enrichment of 1 or above?
Ans. 1

Qu. Determine whether this sequence has phosphorylation enrichment no lower than 1: RDLHTYIMPAH [PNMT_Y256_R254H]
Ans. 1

Qu. Is phosphorylation enrichment for NQDRTYYESVR [SPEN_Y632] at or above 1?
Ans. 0

Qu. I'd appreciate it if you could say whether PEFMVYKPQME [CCRL2_Y170_V168M] has phosphorylation enrichment at least equal to 1.
Ans. 1

Qu. // inclusive: phosphorylation enrichment at least 1? input: RESYKYFPSSL [CXXC1_Y218]
Ans. 0

* * *

test-target: MERTK (UniProt Q12866)
Sequence (Q12866 whole entry, looked up): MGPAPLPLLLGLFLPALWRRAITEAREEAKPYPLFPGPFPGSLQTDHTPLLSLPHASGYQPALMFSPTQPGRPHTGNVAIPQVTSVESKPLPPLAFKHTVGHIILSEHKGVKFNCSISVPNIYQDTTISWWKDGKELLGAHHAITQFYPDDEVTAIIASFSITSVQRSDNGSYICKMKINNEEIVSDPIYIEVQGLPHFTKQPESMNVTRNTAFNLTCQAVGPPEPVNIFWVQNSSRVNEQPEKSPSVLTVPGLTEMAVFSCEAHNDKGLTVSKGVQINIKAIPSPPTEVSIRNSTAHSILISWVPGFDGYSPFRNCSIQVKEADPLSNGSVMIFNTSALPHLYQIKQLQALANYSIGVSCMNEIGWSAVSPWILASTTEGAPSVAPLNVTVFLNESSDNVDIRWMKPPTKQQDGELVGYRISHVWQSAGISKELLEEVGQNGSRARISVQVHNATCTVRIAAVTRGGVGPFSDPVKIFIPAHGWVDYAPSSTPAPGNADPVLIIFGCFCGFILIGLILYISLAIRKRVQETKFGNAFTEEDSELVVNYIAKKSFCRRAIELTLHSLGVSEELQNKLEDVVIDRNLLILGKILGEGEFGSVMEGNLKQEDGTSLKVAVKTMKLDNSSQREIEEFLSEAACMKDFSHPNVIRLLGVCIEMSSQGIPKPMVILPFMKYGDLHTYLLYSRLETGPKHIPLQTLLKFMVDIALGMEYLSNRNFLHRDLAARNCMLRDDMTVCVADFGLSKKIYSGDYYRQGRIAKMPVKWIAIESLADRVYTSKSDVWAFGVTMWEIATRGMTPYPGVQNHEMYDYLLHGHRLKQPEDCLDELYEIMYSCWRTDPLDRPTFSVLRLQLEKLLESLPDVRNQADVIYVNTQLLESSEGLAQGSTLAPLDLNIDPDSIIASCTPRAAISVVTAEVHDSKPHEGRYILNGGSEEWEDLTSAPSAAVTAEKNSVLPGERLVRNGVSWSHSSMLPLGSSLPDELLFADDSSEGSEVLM
assay-text: phosphorylation enrichment, bacterial display (enrichment ratio); higher = better substrate or ligand; peptides without Tyr show the background
Recorded phosphorylation enrichment by entry

Previously resolved entries follow.
YSGDCYRIQGR [DDR2_Y741_Y740C] : 1.25
DQIDTYELSGG [DNM1_Y354] : 0.481
TAIFIYIRPKA [OR10C1_Y258_L255I] : 0.387
HKNNNYEPSLF [BRCA2_Y57_N60S] : 0.654
YRRITYYNWRH [PDE6B_Y556_H557Y] : 0.512
ETSHNYHKFDS [MATR3_Y243] : 0.393

Kindly review the next sequence as well.
Per the records, this sequence ( IMAYFYMCDSA [CASD1_Y382_R386S] ) has phosphorylation enrichment equal to 0.505

* * *

Below: a set of entries, each annotated with reported phosphorylation enrichment.
test-target: FGFR1 (UniProt P11362)
Sequence (P11362 whole entry, looked up): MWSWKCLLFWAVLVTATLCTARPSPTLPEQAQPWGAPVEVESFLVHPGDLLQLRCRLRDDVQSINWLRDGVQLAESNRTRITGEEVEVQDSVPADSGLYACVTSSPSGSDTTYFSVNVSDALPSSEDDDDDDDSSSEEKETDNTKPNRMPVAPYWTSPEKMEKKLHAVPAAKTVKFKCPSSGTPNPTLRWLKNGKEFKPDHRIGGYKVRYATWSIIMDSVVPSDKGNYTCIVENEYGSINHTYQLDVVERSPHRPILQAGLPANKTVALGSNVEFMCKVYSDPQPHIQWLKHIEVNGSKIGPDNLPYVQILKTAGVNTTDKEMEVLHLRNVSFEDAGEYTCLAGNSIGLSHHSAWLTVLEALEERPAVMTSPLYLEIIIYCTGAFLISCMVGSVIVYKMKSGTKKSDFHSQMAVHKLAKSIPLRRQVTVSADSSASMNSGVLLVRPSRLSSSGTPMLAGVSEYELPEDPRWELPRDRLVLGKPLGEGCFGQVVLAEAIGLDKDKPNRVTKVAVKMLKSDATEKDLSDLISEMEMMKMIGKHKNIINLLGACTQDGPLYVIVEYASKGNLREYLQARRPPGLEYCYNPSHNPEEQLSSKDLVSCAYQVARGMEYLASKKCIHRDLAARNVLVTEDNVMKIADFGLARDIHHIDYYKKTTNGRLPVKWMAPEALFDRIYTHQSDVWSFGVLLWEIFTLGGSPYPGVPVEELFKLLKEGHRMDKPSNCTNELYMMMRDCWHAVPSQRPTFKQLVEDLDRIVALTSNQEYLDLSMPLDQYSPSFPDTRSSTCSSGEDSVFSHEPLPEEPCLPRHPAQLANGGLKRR
assay-text: phosphorylation enrichment, bacterial display (enrichment ratio); higher = better substrate or ligand; peptides without Tyr show the background
API doc: respond with a numeric literal and nothing else, no unit.

Sample records with phosphorylation enrichment:
ADRNHYRRFRR [YBX1_Y145_P149R_YF] : 0.509
AKAEICEMRPL [COX10_Y97_Y97C] : 0.593
AVLVQYYMEHH [PTPN11_Y80_E76V] : 0.753
LDYNEYFRGLN [HPRT1_Y198_D201G] : 2.77
LINPKYSVEEE [PCDH19_Y27_L25P] : 0.753

# phosphorylation enrichment of AQESNYRLLRQ [SLC20A2_Y377_R382Q] = 0.411

Note to self: phosphorylation enrichment recorded for LWKWRYEELKE [CCDC102B_Y299_K298R] was 0.503

For LFPANYVAPMT [GRAP2_Y324] the sequence record lists phosphorylation enrichment as 0.535

Measured phosphorylation enrichment of ALARKYHGGGG [HBB_Y146_H144R] : 0.353

Query RRYVYYYSYLL [PTEN_Y177] yields phosphorylation enrichment of 1.88

So, DTYDPYLDIAL [USP36_Y268_V271I] ? Its phosphorylation enrichment was 0.901

Entry APTSGYREFVH [IL4R_Y575_Q576R] , phosphorylation enrichment reported as 0.462

Value of measured phosphorylation enrichment for the entry GKPENYRRLDI [VHL_Y175_V170G] : 0.335

* * *

test-target: EPHB2 (UniProt P29323)
Sequence (P29323 whole entry, looked up): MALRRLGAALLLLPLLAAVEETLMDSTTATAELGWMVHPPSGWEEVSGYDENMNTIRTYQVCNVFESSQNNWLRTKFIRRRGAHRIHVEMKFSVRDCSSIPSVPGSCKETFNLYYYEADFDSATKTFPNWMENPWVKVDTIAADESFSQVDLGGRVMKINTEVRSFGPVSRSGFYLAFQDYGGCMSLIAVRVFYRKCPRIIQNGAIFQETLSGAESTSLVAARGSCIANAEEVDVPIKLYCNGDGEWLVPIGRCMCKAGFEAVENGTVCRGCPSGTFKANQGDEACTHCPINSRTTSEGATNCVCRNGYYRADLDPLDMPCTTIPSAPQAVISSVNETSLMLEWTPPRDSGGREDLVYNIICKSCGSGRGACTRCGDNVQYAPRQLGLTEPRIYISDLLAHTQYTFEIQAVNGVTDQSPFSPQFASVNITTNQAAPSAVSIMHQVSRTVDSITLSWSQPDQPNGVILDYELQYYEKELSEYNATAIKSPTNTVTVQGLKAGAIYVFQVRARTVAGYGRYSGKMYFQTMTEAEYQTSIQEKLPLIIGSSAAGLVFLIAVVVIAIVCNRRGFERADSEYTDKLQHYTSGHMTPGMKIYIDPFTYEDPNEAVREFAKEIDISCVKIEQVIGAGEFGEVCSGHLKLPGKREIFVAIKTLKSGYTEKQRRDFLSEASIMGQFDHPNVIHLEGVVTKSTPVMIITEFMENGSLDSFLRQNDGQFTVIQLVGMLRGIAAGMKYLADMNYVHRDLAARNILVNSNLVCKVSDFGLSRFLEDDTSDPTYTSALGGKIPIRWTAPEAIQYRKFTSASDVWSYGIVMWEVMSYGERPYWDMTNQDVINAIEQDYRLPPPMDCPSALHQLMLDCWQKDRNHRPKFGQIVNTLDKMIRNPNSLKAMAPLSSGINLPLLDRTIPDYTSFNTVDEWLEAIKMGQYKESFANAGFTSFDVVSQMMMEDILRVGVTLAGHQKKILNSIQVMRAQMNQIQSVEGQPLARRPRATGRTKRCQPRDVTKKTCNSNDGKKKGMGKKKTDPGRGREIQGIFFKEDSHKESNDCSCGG
assay-text: phosphorylation enrichment, bacterial display (enrichment ratio); higher = better substrate or ligand; peptides without Tyr show the background
// reported phosphorylation enrichment for each item listed
Just the number, please, no unit attached.

Worked examples follow.
DFFDLYGGEKK [PTPN11_Y66_F71K_YF] : 0.79
YGPPQYNIQYS [ERBB2IP_Y977] : 0.592
FTNRNYDLDFD [MYC_Y12_YF] : 0.587
RDLHTYIMPAH [PNMT_Y256_R254H] : 0.725

With EPHB2 (UniProt P29323) as the test system, DIDKIYIRTGI [PIK3CA_Y355_V356I] showed phosphorylation enrichment of 0.543

EPHB2 (UniProt P29323) phosphorylation enrichment of VPLLEYFRDIF [CDAN1_Y712_YF] is 0.715

Tested on EPHB2 (UniProt P29323), the item ADRNHYRRFRR [YBX1_Y145_P149R_YF] showed phosphorylation enrichment equal to 0.447

Param item: IALNSYHSRNC [IFNGR1_Y397] ; param system: EPHB2 (UniProt P29323); output phosphorylation enrichment: 0.492

Bench note, EPHB2 (UniProt P29323): FTDGQYWIRGR [ACSF3_Y466_K462T] , phosphorylation enrichment reads 0.463

Measured phosphorylation enrichment for this entry FEEDSYVKRSQ [RET_Y905_YF] on EPHB2 (UniProt P29323): 0.492

Fill in: EPHB2 (UniProt P29323) phosphorylation enrichment for KLRMESLSLMH [NCKIPSD_Y660_Y660S] = 0.483
